All values here come from patent EP1202975B1.

TARGET_OR_TEST_SYSTEM: TF-VIIa (Homo sapiens, UniProt P08709)
Construct: 2nM recombinant human factor VIIa; purchased American Diagnostica, Greenwich CT; host or cells: soluble TF made in house in E. coli
Sequence (P08709 213-466 limits assumed): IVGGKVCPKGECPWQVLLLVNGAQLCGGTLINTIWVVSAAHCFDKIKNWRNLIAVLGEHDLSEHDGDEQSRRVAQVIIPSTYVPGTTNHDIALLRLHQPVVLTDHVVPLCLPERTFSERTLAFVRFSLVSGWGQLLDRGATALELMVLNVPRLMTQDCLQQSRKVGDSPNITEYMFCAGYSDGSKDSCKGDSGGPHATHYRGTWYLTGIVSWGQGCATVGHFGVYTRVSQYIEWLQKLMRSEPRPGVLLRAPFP
Sequence (P08709 61-212 limits assumed): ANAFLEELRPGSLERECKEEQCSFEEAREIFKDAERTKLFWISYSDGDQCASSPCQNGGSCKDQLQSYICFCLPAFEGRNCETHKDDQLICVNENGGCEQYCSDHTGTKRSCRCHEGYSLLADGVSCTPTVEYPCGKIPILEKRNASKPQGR
Sequence (P13726 33-251 partner limits assumed): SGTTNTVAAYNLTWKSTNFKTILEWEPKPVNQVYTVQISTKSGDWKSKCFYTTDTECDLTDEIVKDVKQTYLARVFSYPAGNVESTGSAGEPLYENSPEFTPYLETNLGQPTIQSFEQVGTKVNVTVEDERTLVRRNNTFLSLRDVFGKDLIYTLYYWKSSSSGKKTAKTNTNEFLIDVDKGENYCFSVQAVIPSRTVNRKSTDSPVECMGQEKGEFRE
EXPERIMENTAL_DETAILS: TF-VIIa Assay
Assay type: biochemical
SETTINGS: cells given as a plain number (IC50); read-out: IC50 or % Inhibition TF-VIIa (30 µM)
pIC50: −log10 of the molar value.
RECORDED_ENDPOINT: pIC50

>  <MOLECULE>
N=C(N)NCCCNc1nc(Cl)c(-c2ccccc2)n(CC(=O)NCc2ccc(C(=N)N)cc2)c1=O [Example 47]

>  <TARGET_OR_TEST_SYSTEM>
TF-VIIa (Homo sapiens, UniProt P08709)

>  <RECORDED_ENDPOINT>
pIC50

>  <VALUE_REPORTED>
6.18

$$$$

a: CC(C)CNc1nc(Cl)c(-c2ccccc2)n(CC(=O)NCc2ccc(C(=N)N)cc2)c1=O [1522-34]
b: CCCCNc1nc(Cl)c(-c2ccccc2)n(CC(=O)NCc2ccc(C(=N)N)cc2)c1=O [1512-14]
From the items above, decide which of a and b has the lower pIC50 reading. I would appreciate it if you answered with the label of your choice.
b
(b: 5.49, a: 6.30)

* * *

TARGET_OR_TEST_SYSTEM: TF-VIIa (Homo sapiens)
Construct: 2nM recombinant human factor VIIa; purchased American Diagnostica, Greenwich CT; host or cells: soluble TF made in house in E. coli
EXPERIMENTAL_DETAILS: TF-VIIa Assay
Assay type: biochemical
SETTINGS: read-out: IC50 or % Inhibition TF-VIIa (30 µM); cells given as a plain number (IC50)
pIC50: −log10 of the molar value.
RECORDED_ENDPOINT: pIC50

A: N=C(N)c1ccc(CNC(=O)Cn2c(-c3ccc(F)cc3)c(Cl)nc(NC3CCC3)c2=O)cc1
B: CC(CNc1nc(Cl)c(-c2ccccc2)n(CC(=O)NCc2ccc(C(=N)N)cc2)c1=O)N(C)C (stereo not drawn)
C: CCCCC(CC)Nc1nc(Cl)c(-c2ccccc2)n(CC(=O)NCc2ccc(C(=N)N)cc2)c1=O (stereo not drawn)
// TODO: order the 3 molecules above by pIC50, descending Respond with the label ranking, as requested.
B, C, A

* * *

TARGET_OR_TEST_SYSTEM: Human factor Xa (Homo sapiens)
Sequence (P00742 235-488 limits assumed): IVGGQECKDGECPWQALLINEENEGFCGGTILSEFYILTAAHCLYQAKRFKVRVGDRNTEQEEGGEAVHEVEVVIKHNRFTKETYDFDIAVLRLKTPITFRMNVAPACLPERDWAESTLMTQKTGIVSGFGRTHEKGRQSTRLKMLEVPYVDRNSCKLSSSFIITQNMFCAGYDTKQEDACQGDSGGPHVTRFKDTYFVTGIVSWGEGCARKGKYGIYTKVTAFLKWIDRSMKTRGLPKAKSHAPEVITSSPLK
Sequence (P00742 41-179 limits assumed): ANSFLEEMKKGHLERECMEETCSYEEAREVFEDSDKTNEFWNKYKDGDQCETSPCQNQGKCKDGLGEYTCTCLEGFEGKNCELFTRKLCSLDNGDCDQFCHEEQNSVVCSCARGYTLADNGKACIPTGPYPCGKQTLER
EXPERIMENTAL_DETAILS: Xa Assay
SETTINGS: % inhibition at 30 µM
RECORDED_ENDPOINT: IC50 or % Inhibition Factor Xa (30 µM) (%@30)

Illustrative cases are given below, each with its answer.
>  <COMPOUND>
N=C(N)c1ccc(CNC(=O)Cn2c(-c3ccccc3)c(Cl)nc(NCCc3ccncc3)c2=O)cc1 [Example 19]

>  <IC50 or % Inhibition Factor Xa (30 µM) [%@30]>
22

$$$$
>  <COMPOUND>
Nc1cccc(-c2c(Cl)nc(NC3CCC3)c(=O)n2CC(=O)NCCc2ccccc2)c1

>  <IC50 or % Inhibition Factor Xa (30 µM) [%@30]>
5

$$$$
>  <COMPOUND>
N=C(N)c1ccc(CNC(=O)Cn2c(-c3ccc4ccccc4c3)c(Cl)nc(NCCc3ccccc3)c2=O)cc1

>  <IC50 or % Inhibition Factor Xa (30 µM) [%@30]>
32

$$$$

I: Nc1cccc(-c2c(Cl)nc(NC3CCC3)c(=O)n2CC(=O)NCc2ccccc2)c1
II: Cc1cccc(-c2cnc(NCCc3ccccc3)c(=O)n2CC(=O)NCc2ccc(C(=N)N)cc2)c1
III: N=C(N)c1ccc(CNC(=O)Cn2c(-c3ccc(-c4ccccc4)cc3)c(Cl)nc(NCCc3cccnc3)c2=O)cc1
IV: N=C(N)c1ccc(CNC(=O)Cn2c(-c3ccc(-c4ccccc4)cc3)c(Cl)nc(NCCc3ccc(Cl)cc3)c2=O)cc1
Please produce an ascending ranking of these compounds based on IC50 or % Inhibition Factor Xa (30 µM). To answer, write out the labels according to the requested order.
I, IV, III, II
(I: 8 %@30, IV: 13 %@30, III: 21 %@30, II: 42 %@30)
